Each entry below carries its reported koff.
target: T1, human nerve growth factor (human, UniProt P01138 122-241); assay: BIAcore SPR screen, Fab over immobilised human NGF
T1 construct: Immobilised on CM5 chips for BIAcore, soluble in neuron survival assays; also called human NGF; hNGF
T1 sequence (P01138 122-241 limits assumed): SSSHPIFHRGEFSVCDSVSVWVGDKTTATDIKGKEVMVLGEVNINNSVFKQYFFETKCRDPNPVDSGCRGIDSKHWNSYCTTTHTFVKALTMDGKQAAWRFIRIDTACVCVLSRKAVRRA
observable: koff (s⁻¹)

binder: light chain library clone L97 (Fab, V domains shown, See note of m8) VH: QVQLQESGPGLVKPSETLSLTCTVSGFSLIGYDINWIRQPPGKGLEWIGMIWGDGTTDYNSALKSRVTISKDTSKNQFSLKLSSVTAADTAVYYCARGGYYYGTSYYFDYWGQGTLVTVS VL: DIQMTQSPSSLSASVGDRVTITCRASQSISNQLNWYQQKPGKAPKLLIYYVSRFHSGVPSRFSGSGSGTDFTFTISSLQPEDIATYYCQQSKTLPYTFGQGTKLEIKR
observable: koff
recorded.measurement: 0.00056

binder: heavy chain library clone H28 (Fab, V domains shown, See note of m8) VH: QVQLQESGPGLVKPSETLSLTCTVSGFSLIGYDSTWIRQPPGKGLEWIGSIWGDGTTDYNSALKSRVTISKDTSKNQFSLKLSSVTAADTAVYYCARGGYYYGTSYYFDYWGQGTLVTVS VL: DIQMTQSPSSLSASVGDRVTITCRASQDISNHLNWYQQKPGKAPKLLIYYISRFHSGVPSRFSGSGSGTDFTFTISSLQPEDIATYYCQQSKTLPYTFGQGTKLEIKR
observable: koff
recorded.measurement: 0.00075

binder: heavy chain library clone H222 (Fab, V domains shown, See note of m8) VH: QVQLQESGPGLVKPSETLSLTCTVSGFSLIGYDVTWIRQPPGKGLEWIGGIWGDGTTDYNSAVKSRVTISKDTSKNQFSLKLSSVTAADTAVYYCARGGYYYGTSYYFDYWGQGTLVTVS VL: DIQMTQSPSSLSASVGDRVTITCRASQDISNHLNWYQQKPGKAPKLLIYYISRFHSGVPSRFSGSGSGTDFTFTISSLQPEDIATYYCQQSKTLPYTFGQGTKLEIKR
observable: koff
recorded.measurement: 0.00038
